Assay: NCI Yeast Anticancer Drug Screen. Data for the mec2-1 strain (AID 157)
Conditions: S. cerevisiae mec2-1 strain, at 5.0 µM (retest, dose inferred, filed as 0.5), hits give high values
Description: Growth inhibition of yeast strains with defined genetic alterations is measured as a screen for potential anti-cancer activity. Selected strains with alterations in DNA damage repair or cell cycle control were exposed to compounds and growth inhibition was measured relative to vehicle treated controls. The strain used in this assay is mec2-1
This is part of a sample that, as a whole, favours compounds with a hit. Of some 79,000 tested, about 15% had one in any assay.
Measured growth inhibition accompanies every entry in the list below.
Number only, in %; omit the unit.

As a guide, the following entries are already answered.
>  <molecule>
COc1cc(NCC(C#N)C#N)ccc1N=Nc1ccc(Cl)cc1

>  <readout units>
%

>  <growth inhibition>
-2

$$$$
>  <molecule>
Cc1ccc[n+](CC(=O)C2CCC3CC4CCCCC4CC3C2)c1 (configuration not stated)

>  <readout units>
%

>  <growth inhibition>
-1

$$$$
>  <molecule>
CN1c2ccccc2C(=O)NC1c1ccc([N+](=O)[O-])s1 (configuration not stated)

>  <readout units>
%

>  <growth inhibition>
7

$$$$
>  <molecule>
O=C(Nc1ccc(Cl)cc1)c1cccc([N+](=O)[O-])c1O

>  <readout units>
%

>  <growth inhibition>
5

$$$$
>  <molecule>
CCc1ccc2ccc3ccc(CC)nc3c2n1

>  <readout units>
%

>  <growth inhibition>
85

$$$$

Query block: Requested read-out: growth inhibition. Entry: `Nc1ccccc1C(=O)/C=C/c1ccccc1`
Result block: 4

Query block: Requested read-out: growth inhibition. Entry: `CN(C)CCSCCN1c2ccccc2Sc2ccc(Cl)cc21`
Result block: -2

Query block: Requested read-out: growth inhibition. Entry: `CCC(C)(C[NH-])C[NH-].[Cl][Pt+2][Cl]`
Result block: 19

Query block: Requested read-out: growth inhibition. Entry: CCCC(C(=O)OCCN1CCCC1(C)C)C1CCCC1 (configuration not stated)
Result block: 10

Query block: Requested read-out: growth inhibition. Entry: `COc1ccc2c(c1)C(=O)/C(=C/c1ccc([N+](=O)[O-])o1)CO2`
Result block: 10

Query block: Requested read-out: growth inhibition. Entry: `Cc1c(N)ccc(O)c1C`
Result block: -1

Query block: Requested read-out: growth inhibition. Entry: `N=c1c2ccccc2cc2c3ccccc3ccn12`
Result block: 47

* * *

assay: NCI Yeast Anticancer Drug Screen. Data for the rad50 strain (AID 155);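 note: 0% = growth of vehicle-only cultures of the same strain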; settings: S. cerevisiae rad50 strain growth inhibition; at 50.0 µM (retest, dose inferred, filed as 5.0); hits give high values
Compounds without any hit were thinned out: in the full panel of roughly 79,000, 15% have a hit. Where a SMILES comes first, the peptide text is derived from it. [ ]: non-standard residue; d: D form. Phe(4-Cl) = N[CH](Cc1ccc(Cl)cc1)C(=O)O; 3Pal = N[CH](Cc1cccnc1)C(=O)O
experimental readout: growth inhibition (%)
Number only, in %; omit the unit.

>  <compound>
CC(=O)OCC(C(N)=O)(c1ccccc1)c1ccccc1

>  <readout units>
%

>  <growth inhibition>
1

$$$$
>  <compound>
COc1cc(NCc2ccc3nc(-c4ccccc4)c(N)nc3c2)cc(OC)c1OC

>  <readout units>
%

>  <growth inhibition>
-19

$$$$
>  <compound>
Oc1ccc(Br)cc1C=Nc1c(NC2CCCCC2)oc2ccc(Br)cc12

>  <readout units>
%

>  <growth inhibition>
9

$$$$
>  <compound>
CC(=O)NC(Cc1ccc(Cl)cc1)C(=O)NC(Cc1ccc(Cl)cc1)C(=O)NC(Cc1cccnc1)C(=O)NC(CO)C(=O)NC(Cc1ccc(O)cc1)C(=O)NC(CCCN=C(N)N)C(=O)NC(CC(C)C)C(=O)NC(CCCN=C(N)N)C(=O)N1CCCC1C(=O)NC(C)C(=O)O (stereo not drawn) (Ac-[Phe(4-Cl)][Phe(4-Cl)][3Pal]SYRLRPA-OH; configuration not given here)

>  <readout units>
%

>  <growth inhibition>
-8

$$$$
>  <compound>
CCCCCCCCCCOC(=O)c1ccccn1

>  <readout units>
%

>  <growth inhibition>
93

$$$$

Query block: Requested read-out: growth inhibition. Entry: CCCOC(=O)C1CCCCC1C(=O)OCCC (stereo not drawn)
Result block: -17

Query block: Requested read-out: growth inhibition. Entry: `Fc1ccc2c(c1)Nc1cc(F)cc(F)c1S2`
Result block: 54

Query block: Requested read-out: growth inhibition. Entry: `CCOC(=O)c1cc(NC(=O)c2cc(NC(=O)c3cc(NC(=O)c4c(-c5ccccc5)noc4C)cn3C)cn2C)cn1C`
Result block: 56
